tested system: Peroxisome proliferator-activated receptor delta (Mus musculus)
Sequence (P35396 whole entry): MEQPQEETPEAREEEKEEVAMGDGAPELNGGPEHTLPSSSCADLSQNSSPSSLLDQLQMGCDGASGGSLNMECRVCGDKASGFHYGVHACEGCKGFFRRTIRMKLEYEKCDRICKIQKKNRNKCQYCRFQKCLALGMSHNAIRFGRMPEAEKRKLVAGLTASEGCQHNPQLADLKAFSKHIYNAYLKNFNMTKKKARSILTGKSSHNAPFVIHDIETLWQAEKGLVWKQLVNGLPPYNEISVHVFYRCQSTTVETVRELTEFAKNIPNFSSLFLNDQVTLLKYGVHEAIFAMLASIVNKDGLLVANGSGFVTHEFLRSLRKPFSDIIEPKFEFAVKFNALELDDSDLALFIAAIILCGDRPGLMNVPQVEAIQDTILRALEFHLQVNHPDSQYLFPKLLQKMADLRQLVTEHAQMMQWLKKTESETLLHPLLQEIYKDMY
protocol text: Transactivation of mouse GAL4-fused PPARdelta LBD expressed in African green monkey COS7 cells co-expressing 5Gal4 pGL3 TK Luc after overnight incubation by luciferase reporter gene assay
endpoint name: EC50

Param readout= EC50; system= Peroxisome proliferator-activated receptor delta (Mus musculus); entry= O=C(O)CCCc1cc2cc(Cl)ccc2n1S(=O)(=O)c1ccc2ncsc2c1 ; returns value. 1560 nM

###

tested system: Peroxisome proliferator-activated receptor alpha (Homo sapiens)
protocol text: Transactivation of human GAL4-fused PPARalpha LBD expressed in African green monkey COS7 cells co-expressing 5Gal4 pGL3 TK Luc after overnight incubation by luciferase reporter gene assay relative to fenofibric acid
Assay type: cell-based
endpoint name: Emax

Observe how each entry below is paired with its result.
{"columns": ["molecule smiles", "Emax"],
 "data": [
  ["COc1ccccc1S(=O)(=O)n1c(CCCC(=O)O)cc2cc(C(F)(F)F)ccc21", "35%"],
  ["O=C(O)CCCc1cc2cc(C(F)(F)F)ccc2n1S(=O)(=O)c1ccc(Cl)cc1", "45%"],
  ["O=C(O)CCCc1cc2cc(Cl)ccc2n1S(=O)(=O)c1ccc2ncsc2c1", "106%"],
  ["O=C(O)CCCc1cc2cc(C(F)(F)F)ccc2n1S(=O)(=O)c1cccc(Cl)c1", "70%"],
  ["COc1ccc(S(=O)(=O)n2c(CCCC(=O)O)cc3cc(C(F)(F)F)ccc32)cc1", "55%"]
]}

State the recorded Emax for this entry: CN1CCOc2ccc(S(=O)(=O)n3c(CCCC(=O)O)cc4cc(Cl)ccc43)cc21 113%

What do you get for Cc1nc2ccc(S(=O)(=O)n3c(CCCC(=O)O)cc4cc(Cl)ccc43)cc2s1 ? < 20%

###

Each entry below carries its recorded EC50.
tested system: Peroxisome proliferator-activated receptor delta (Homo sapiens, UniProt Q03181)
Sequence (Q03181 whole entry, the tested form may be a part): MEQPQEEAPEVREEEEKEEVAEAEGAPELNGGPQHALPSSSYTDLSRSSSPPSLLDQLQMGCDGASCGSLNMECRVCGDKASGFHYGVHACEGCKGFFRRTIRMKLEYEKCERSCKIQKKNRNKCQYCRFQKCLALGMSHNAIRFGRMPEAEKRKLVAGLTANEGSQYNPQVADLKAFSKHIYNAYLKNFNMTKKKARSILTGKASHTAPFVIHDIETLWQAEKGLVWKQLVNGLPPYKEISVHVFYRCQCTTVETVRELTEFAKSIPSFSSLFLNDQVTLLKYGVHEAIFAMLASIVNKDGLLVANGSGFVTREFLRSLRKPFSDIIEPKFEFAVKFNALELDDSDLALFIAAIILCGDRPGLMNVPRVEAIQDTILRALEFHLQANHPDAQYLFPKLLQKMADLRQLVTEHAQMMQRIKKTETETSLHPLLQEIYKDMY
protocol text: Transactivation of human GAL4-fused PPARdelta LBD expressed in African green monkey COS7 cells co-expressing 5Gal4 pGL3 TK Luc after overnight incubation by luciferase reporter gene assay
Give the value, in units of nM, as a plain number.

Observe how each entry below is paired with its result.
{"columns": ["molecule smiles", "EC50 / nM"],
 "data": [
  ["O=C(O)CCCc1cc2cc(Cl)ccc2n1S(=O)(=O)c1ccccc1", 645],
  ["O=C(O)CCCc1cc2cc(C(F)(F)F)ccc2n1S(=O)(=O)c1cccc(Cl)c1", 2030],
  ["Cc1nc2ccc(S(=O)(=O)n3c(CCCC(=O)O)cc4cc(Cl)ccc43)cc2s1", 441],
  ["Cc1nc2cc(S(=O)(=O)n3c(CCCC(=O)O)cc4cc(Cl)ccc43)ccc2s1", 1100],
  ["Cc1cccc(S(=O)(=O)n2c(CCCC(=O)O)cc3cc(Cl)ccc32)c1", 1350]
]}

State the recorded EC50 for this entry: O=C(O)CCCc1cc2cc(C(F)(F)F)ccc2n1S(=O)(=O)c1cccc(OC(F)(F)F)c1 1140

What do you get for Cc1ccc(S(=O)(=O)n2c(CCCC(=O)O)cc3cc(Cl)ccc32)cc1 ? 1080

What do you get for O=C(O)CCCc1cc2cc(Cl)ccc2n1S(=O)(=O)c1ccc2ncsc2c1 ? 866

What do you get for Nc1nc2ccc(S(=O)(=O)n3c(CCCC(=O)O)cc4cc(Cl)ccc43)cc2s1 ? 919
